Source: ChEMBL document CHEMBL5528064

biological target: Cytochrome P450 2D6 (Homo sapiens, UniProt P10635)
Sequence (P10635 whole entry): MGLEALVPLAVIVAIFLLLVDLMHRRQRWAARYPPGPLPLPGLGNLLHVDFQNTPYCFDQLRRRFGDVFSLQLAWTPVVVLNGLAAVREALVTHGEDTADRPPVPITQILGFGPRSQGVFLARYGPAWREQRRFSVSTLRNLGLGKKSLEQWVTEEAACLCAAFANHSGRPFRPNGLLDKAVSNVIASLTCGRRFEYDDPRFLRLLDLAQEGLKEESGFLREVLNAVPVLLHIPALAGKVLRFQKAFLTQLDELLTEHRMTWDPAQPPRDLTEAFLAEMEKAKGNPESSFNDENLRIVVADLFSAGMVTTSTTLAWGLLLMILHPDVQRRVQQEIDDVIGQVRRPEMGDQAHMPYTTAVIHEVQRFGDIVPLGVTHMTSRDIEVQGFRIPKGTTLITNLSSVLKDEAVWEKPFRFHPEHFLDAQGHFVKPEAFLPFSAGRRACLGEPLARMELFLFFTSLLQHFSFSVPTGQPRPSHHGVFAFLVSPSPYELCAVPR
measured-metric: IC50

>>> df
                                smiles_text  measured_metric  reported
0  CNC(=O)C(=O)[C@H](CCC(C)(F)F)NC(=O)[C@@H]1[C@H]2CCC[C@H]2CN1C(=O)[C@@H](NC(=O)OC)C(C)(C)C             IC50  > 200 µM

---

assay: Oral bioavailability in rat at 3 mg/kg measured upto 24 hrs by LC-MS analysis; assay type: ADME, organism-based; details: in vivo
measured-metric: bioavailability

                                smiles_text  measured_metric  reported
0  COC(=O)N[C@H](C(=O)N1C[C@@H]2CCC[C@@H]2[C@H]1C(=O)N[C@@H](CCC(C)(F)F)C(=O)C(=O)NC1CC1)C(C)(C)C  bioavailability       47%
1  COC(=O)N[C@H](C(=O)N1CC[C@@H](C(F)(F)F)C[C@H]1C(=O)N[C@@H](CCC(C)(F)F)C(=O)C(=O)NC1CC1)C(C)(C)C  bioavailability       40%
2  COC(=O)N[C@H](C(=O)N1C[C@H]2[C@@H]([C@H]1C(=O)N[C@@H](CCC(C)(F)F)C(=O)C(=O)NC1CC1)C21CCOCC1)C(C)(C)C  bioavailability       40%

---

molecular target: PXR (nuclear receptor subfamily 1 group I member 2) (Homo sapiens, UniProt O75469); assay: Activation of PXR (unknown origin) assessed as maximal activation at 30 uM relative to control; type: toxicity; settings: read-out: Activity
Sequence (O75469 whole entry): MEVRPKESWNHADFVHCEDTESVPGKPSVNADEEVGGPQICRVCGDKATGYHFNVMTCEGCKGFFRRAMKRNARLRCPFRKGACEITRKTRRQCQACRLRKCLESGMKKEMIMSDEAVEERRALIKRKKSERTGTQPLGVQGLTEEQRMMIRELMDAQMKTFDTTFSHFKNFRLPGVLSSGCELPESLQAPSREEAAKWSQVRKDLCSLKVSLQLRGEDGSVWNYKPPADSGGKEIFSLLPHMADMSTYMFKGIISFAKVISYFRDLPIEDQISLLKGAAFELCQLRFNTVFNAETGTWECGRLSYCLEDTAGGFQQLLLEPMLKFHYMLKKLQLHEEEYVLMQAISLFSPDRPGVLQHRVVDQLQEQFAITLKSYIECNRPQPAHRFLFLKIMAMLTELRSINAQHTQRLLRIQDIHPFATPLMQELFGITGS
measured-metric: Emax at 30 µM (%)

>>> print(df.to_string())
                                smiles_text  measured_metric  reported
0  CNC(=O)C(=O)[C@H](CCC(C)(F)F)NC(=O)[C@@H]1[C@H]2CCC[C@H]2CN1C(=O)[C@@H](NC(=O)OC)C(C)(C)C    Emax at 30 µM        29

---

Biological target: Cytochrome P450 2C8 (Homo sapiens)
Sequence (P10632 whole entry): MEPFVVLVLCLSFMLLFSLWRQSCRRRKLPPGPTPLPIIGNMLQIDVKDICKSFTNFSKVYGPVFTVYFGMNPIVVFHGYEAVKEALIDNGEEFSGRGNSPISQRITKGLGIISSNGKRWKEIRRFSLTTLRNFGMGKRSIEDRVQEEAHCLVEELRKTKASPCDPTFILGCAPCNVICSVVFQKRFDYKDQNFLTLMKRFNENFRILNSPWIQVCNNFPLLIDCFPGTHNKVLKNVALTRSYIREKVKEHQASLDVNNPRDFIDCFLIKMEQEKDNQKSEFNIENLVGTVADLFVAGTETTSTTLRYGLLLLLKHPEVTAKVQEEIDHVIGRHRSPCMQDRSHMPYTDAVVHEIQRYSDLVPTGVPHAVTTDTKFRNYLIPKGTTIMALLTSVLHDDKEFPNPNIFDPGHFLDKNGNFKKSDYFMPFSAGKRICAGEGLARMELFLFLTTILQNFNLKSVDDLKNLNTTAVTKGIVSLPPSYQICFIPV
pIC50: −log10 of the molar value.
measured-metric: pIC50

In [3]: df
Out[3]:
                                smiles_text  reported
0  CNC(=O)C(=O)[C@H](CCC(C)(F)F)NC(=O)[C@@H]1[C@H]2CCC[C@H]2CN1C(=O)[C@@H](NC(=O)OC)C(C)(C)C    < 3.70
